I'd appreciate it if you could supply Ki values for the items below.
Molecular target: 5-hydroxytryptamine receptor 2C (Homo sapiens)
Test: Binding affinity using [125I]DOI as radioligand with membranes isolated from a CHO-k cell line expressing the human 5-hydroxytryptamine 2C receptor
Form entry: value (nM) — number only.

Per the records, this compound ( O=C1Nc2cc(Cl)c(Cl)cc2N2CCNCC12 (centres undefined) ) has Ki equal to 4

# compound O=C1Nc2cc(Cl)c(Cl)cc2N2CCNC[C@H]12 ; its Ki = 3

Short answer for O=C1Nc2ccc(Cl)cc2N2CCNC[C@H]12 : Ki was 34

Documented Ki of Clc1cc2c(cc1Cl)N1CCNC[C@H]1CN2 : 8

Consider O=C(c1ccccc1)c1ccc2c(c1)NC(=O)C1CNCCN21 (centres undefined) . Its measured Ki is 2150

Query Clc1cc2c(cc1Cl)N1CCNC[C@@H]1CN2 yields Ki of 7

// sample O=C1Nc2cc(C(F)(F)F)c(Cl)cc2N2CCNCC12 (centres undefined) , its Ki was 9

Documented Ki of FC(F)(F)c1cc2c(cc1Cl)N1CCNC[C@@H]1CN2 : 17

Consider O=C1Nc2ccc(Cl)c(Cl)c2N2CCNCC12 (centres undefined) . Its measured Ki is 1000

====

Biological target: 5-hydroxytryptamine receptor 2C (Homo sapiens) (UniProt P28335)
Sequence (whole entry): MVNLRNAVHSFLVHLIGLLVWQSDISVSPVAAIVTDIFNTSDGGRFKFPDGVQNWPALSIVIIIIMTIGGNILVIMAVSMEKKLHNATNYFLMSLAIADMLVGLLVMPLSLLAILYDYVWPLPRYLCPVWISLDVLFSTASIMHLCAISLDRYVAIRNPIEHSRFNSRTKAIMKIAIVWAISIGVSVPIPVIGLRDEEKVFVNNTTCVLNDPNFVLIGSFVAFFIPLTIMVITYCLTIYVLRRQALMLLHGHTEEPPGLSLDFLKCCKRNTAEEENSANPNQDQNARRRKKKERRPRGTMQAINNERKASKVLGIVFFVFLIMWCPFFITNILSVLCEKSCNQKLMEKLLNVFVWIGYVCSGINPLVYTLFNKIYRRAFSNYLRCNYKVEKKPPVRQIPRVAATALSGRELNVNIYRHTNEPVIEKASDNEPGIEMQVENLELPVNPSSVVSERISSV
Assay: Inhibitory activity using [3H]mesulergine as radioligand with receptor membranes isolated from a CHO-k cell line expressing the human 5-hydroxytryptamine 2C receptor at a concentration of 1 uM
Format: cell-free
metric name: inhibition (%)
Just the number please, in %, no unit attached.

inhibition in this record for COc1ccc2c(c1)N1CCNCC1C(=O)N2 (stereo unspecified) : 36

Consider O=C1Nc2ccc(F)cc2N2CCNCC12 (stereo unspecified) . Its measured inhibition is 26

Form: molecule = O=C1Nc2c(F)cccc2N2CCNCC12 (stereo unspecified) ; inhibition = 48

The value of inhibition measured for the molecule CCCCN(CCCC)c1ccc2c(c1)NC(=O)C1CNCCN21 (stereo unspecified) turned out to be 7

For reference, reported inhibition for O=C1Nc2ccc(Cl)cc2N2CCNCC12 (stereo unspecified) stands at 67

Kindly note the recorded inhibition for O=C1Nc2ccccc2N2CCNC[C@H]12 , which is 47

Record summary for O=C1Nc2cc(NC(=O)C(F)(F)F)ccc2N2CCNCC12 (stereo unspecified) : reported inhibition = 21

The reported value for O=C1Nc2ccccc2N2CCNCC12 (stereo unspecified) in terms of inhibition is 25

inhibition recorded for this molecule, COC(=O)c1ccc2c(c1)NC(=O)C1CNCCN21 (stereo unspecified) , is 1

The reported inhibition of the molecule O=C1Nc2c(Cl)cccc2N2CCNCC12 (stereo unspecified) was 15

Field inhibition (entry NC(=O)c1ccc2c(c1)NC(=O)C1CNCCN21 (stereo unspecified) ) reads 5

In plain terms, CN1C(=O)C2CNCCN2c2ccccc21 (stereo unspecified) has a documented inhibition of 9

For reference, reported inhibition for O=C1Nc2ccccc2N2CCNC[C@@H]12 stands at 10

Measured inhibition of O=C1Nc2cc(F)ccc2N2CCNCC12 (stereo unspecified) : 7

molecule O=C1Nc2ccc(O)cc2N2CCNCC12 (stereo unspecified) , inhibition observed: 24

Note to self: inhibition recorded for O=C1Nc2cc(Cl)ccc2N2CCNCC12 (stereo unspecified) was 33

Record c1ccc2c(c1)NCC1CNCCN21 (stereo unspecified) . Reported inhibition: 22

In plain terms, Nc1ccc2c(c1)NC(=O)C1CNCCN21 (stereo unspecified) has a documented inhibition of 0

Form: molecule = Cc1ccc2c(c1)N1CCNCC1C(=O)N2 (stereo unspecified) ; inhibition = 0

Reported inhibition ( O=C1Nc2cccc(Cl)c2N2CCNCC12 (stereo unspecified) ) = 8

inhibition reading for O=C1Nc2cc(C(F)(F)F)ccc2N2CCNCC12 (stereo unspecified) : 46

====

Target: 5-hydroxytryptamine receptor 2C (Homo sapiens)
Sequence (P28335 whole entry): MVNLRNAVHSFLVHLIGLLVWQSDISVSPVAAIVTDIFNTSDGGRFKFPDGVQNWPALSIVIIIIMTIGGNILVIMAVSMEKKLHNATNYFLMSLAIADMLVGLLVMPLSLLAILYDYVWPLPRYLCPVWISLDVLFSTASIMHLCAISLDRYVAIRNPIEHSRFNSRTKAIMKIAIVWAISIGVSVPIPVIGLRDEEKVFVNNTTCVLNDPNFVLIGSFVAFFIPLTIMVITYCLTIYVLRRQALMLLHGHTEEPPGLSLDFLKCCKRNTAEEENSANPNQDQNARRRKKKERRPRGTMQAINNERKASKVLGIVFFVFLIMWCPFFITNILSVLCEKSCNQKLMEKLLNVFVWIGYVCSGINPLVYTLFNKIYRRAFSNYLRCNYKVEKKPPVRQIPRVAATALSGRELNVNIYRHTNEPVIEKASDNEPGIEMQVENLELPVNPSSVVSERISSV
Test: Binding affinity using [3H]mesulergine as radioligand with receptor membranes isolated from a CHO-k cell line expressing the human 5-hydroxytryptamine 2C receptor
pKi: −log10 of the molar value.
Please use Criterion met whenever pKi is not below 7, and Criterion not met whenever it is.

Item O=C1Nc2cc(C(F)(F)F)c(Cl)cc2N2CCNC[C@@H]12 with pKi of 7 or above? Criterion not met

Entry O=C1Nc2ccc(Cl)c(Cl)c2N2CCNCC12 (stereo not given) : is its pKi no less than 7? Criterion not met

Kindly determine if pKi recorded for Clc1cc2c(cc1Cl)N1CCNCC1CN2 (stereo not given) is above or exactly 7. Criterion met

# check: pKi of O=C1Nc2ccc(Cl)cc2N2CCNC[C@H]12 is greater than or equal to 7 Criterion not met

Say whether O=C1Nc2cc(Cl)c(Cl)cc2N2CCNC[C@H]12 shows pKi of 7 or more. Criterion met

Given O=C1Nc2cc(Cl)c(Cl)cc2N2CCNC[C@@H]12 , state whether its pKi is at least 7. Criterion not met

Does O=C(c1ccccc1)c1ccc2c(c1)NC(=O)C1CNCCN21 (stereo not given) have a reported pKi of at least 7? Criterion not met

# bool: pKi of O=C1Nc2cc(Cl)c(Cl)cc2N2CCNCC12 (stereo not given) >= 7 Criterion met

# bool: pKi of O=C1Nc2c(Cl)cc(Cl)cc2N2CCNCC12 (stereo not given) >= 7 Criterion not met

Dear colleague, could you confirm whether O=C1Nc2cc(F)c(F)cc2N2CCNCC12 (stereo not given) has pKi at or above 7? Criterion not met

====

Biological target: 5-hydroxytryptamine receptor 2C (Homo sapiens)
Sequence (P28335 whole entry): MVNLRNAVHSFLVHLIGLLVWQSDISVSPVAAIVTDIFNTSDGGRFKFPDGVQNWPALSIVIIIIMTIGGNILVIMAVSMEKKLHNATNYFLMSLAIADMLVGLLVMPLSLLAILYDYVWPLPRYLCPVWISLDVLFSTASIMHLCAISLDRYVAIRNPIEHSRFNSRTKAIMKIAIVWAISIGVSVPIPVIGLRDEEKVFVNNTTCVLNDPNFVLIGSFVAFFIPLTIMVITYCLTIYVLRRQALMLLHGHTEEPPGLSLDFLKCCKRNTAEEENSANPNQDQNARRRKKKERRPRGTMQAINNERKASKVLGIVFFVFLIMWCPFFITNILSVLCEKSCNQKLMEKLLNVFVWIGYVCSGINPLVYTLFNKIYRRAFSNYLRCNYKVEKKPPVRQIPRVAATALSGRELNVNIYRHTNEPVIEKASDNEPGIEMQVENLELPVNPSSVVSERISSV
Assay: Agonistic activity for 5-HT2c (5-HT2C) by measuring [3H]inositol monophosphate fromation in CHO cells in which the human 5-HT2C receptor subtype was stably expressed
metric name: EC50 (nM)
Quick note: give the figure in nM, leave out the unit.

GET /value?item= O=C1Nc2cc(C(F)(F)F)c(Cl)cc2N2CCNCC12 (stereo unspecified) &field=EC50 returns 136

get_value(item= O=C1Nc2ccc(Cl)cc2N2CCNC[C@H]12 , readout=EC50) returns 86

Input Clc1cc2c(cc1Cl)N1CCNC[C@H]1CN2 . Output EC50: 45

// recorded EC50 for FC(F)(F)c1cc2c(cc1Cl)N1CCNC[C@@H]1CN2 : 19

The reported EC50 of the compound Clc1cc2c(cc1Cl)N1CCNC[C@@H]1CN2 was 49

Looking up Clc1cc2c(cc1Cl)N1CCNCC1CN2 (stereo unspecified) , I see its EC50 listed as 7.6
